Test summary: Intrinsic clearance in mouse microsomes
Format: ADME, Microsome
Param label: returns rule met when CLint scaled < 1000 mL/min/kg, returns rule not met otherwise, including exact equality.

Below, 5 compounds whose answers are already recorded.
• C=CCn1c(=O)c2cnc(Nc3ccc(N4CCN(C)CC4)cc3)nc2n1-c1ccc2c(n1)C(C)(O)CO2 (single isomer, unassigned) = rule met
• C=CCn1c(=O)c2cnc(Nc3ccc4c(c3)CNCC43CC3)nc2n1-c1ccc2c(n1)[C@@](O)(C(F)(F)F)CC2 = rule met
• C=CCn1c(=O)c2cnc(Nc3ccc4c(c3)CN(C)CC43CC3)nc2n1-c1cccc(C(C)(C)O)n1 = rule not met
• C=CCn1c(=O)c2cnc(Nc3cccc(N4CCN(C)CC4)c3)nc2n1-c1ccc2c(n1)[C@@](O)(CC)CC2 = rule not met
• C=CCn1c(=O)c2cnc(Nc3ccc4c(ccn4C4CCN(C)CC4)c3)nc2n1-c1ccc2c(n1)[C@@](O)(CC)CC2 = rule met

Next compound, please.
[ask] is_below(CLint scaled, 1000 mL/min/kg) for C=CCn1c(=O)c2cnc(Nc3ccc4c(c3)CNCC4)nc2n1-c1cccc(C(C)(C)O)n1 ?
[reply] rule met
